- Tested on: FRK
- studyConditions: concentration: 1 μM, replicates: in singlicate; n = 1;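 also: KINOMEscan kinase panel screen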
Listed compounds paired with reported %Inh

- compound: "CCn1c(-c2ccccc2)nc2cnccc21 [SB-733416]"
  unitsOfMeasure: "%"
  %Inh: 27
- compound: "COc1ccc(Nc2nccc(N3CCC(NC(=O)c4cc5ccccc5s4)C3)n2)cc1 (stereo not drawn) [GSK1379738]"
  unitsOfMeasure: "%"
  %Inh: 0
- compound: "CCc1ccc(-c2ccc3c(c2)-c2n[nH]cc2S(=O)(=O)N3C)cc1"
  unitsOfMeasure: "%"
  %Inh: 2
- compound: "CNc1cc(-c2ccc3c(N)n[nH]c3c2)nc(N)n1 [GSK2224810]"
  unitsOfMeasure: "%"
  %Inh: 7
- compound: "COC(=O)c1cccc(NC(=O)NC2CCN(c3ccnc(Nc4ccc(OC)cc4)n3)C2)c1 (stereo not drawn) [GSK1379746]"
  unitsOfMeasure: "%"
  %Inh: 11
- compound: "COc1ccc(Nc2nccc(N3CCC(NC(=O)C(C)c4ccc(Cl)cc4)C3)n2)cc1 (stereo not drawn) [GSK1379735]"
  unitsOfMeasure: "%"
  %Inh: 0
- compound: "COc1nccc(-c2c(-c3ccc(F)cc3)ncn2CCCN2CCOCC2)n1 [SB-282852]"
  unitsOfMeasure: "%"
  %Inh: 0
- compound: "Cl.Cl.Cl.N#Cc1ccc(CCNc2nccc(-c3cccc(CN4CCNCC4)c3)n2)cc1 [GSK2137462]"
  unitsOfMeasure: "%"
  %Inh: 4
- compound: "CSc1ccc(-c2nc3n(c2-c2ccncc2)CCC3)cc1 [SKF-105561]"
  unitsOfMeasure: "%"
  %Inh: 0

###

- Tested on: PLK2
- studyConditions: concentration: 1 μM, replicates: in singlicate; n = 1
Catalogue of %Inh readings, one per entry.

- molecule: "Cl.Cl.Cl.N#Cc1ccc(CCNc2nccc(-c3cccc(CN4CCNCC4)c3)n2)cc1"
  %Inh [%]: 5
- molecule: "COc1ccc(-c2coc3ccc(-c4nnc(C)o4)cc23)cc1"
  %Inh [%]: 0
- molecule: "COC(=O)C(NC(=O)NC1CCN(c2ccnc(Nc3ccc(F)cc3)n2)C1)c1ccccc1 (stereo not shown)"
  %Inh [%]: 3
- molecule: "O=C1NC(=O)C(c2ccc(Cl)cc2)=C1Nc1cccc(Cl)c1"
  %Inh [%]: 0
- molecule: "CC(=O)c1cccc(NC(=O)NC2CCN(c3ccnc(Nc4ccc(F)cc4)n3)C2)c1 (stereo not shown)"
  %Inh [%]: 0
- molecule: "COc1ccc(Nc2nccc(N3CCC(NC(=O)c4cc5ccccc5s4)C3)n2)cc1 (stereo not shown)"
  %Inh [%]: 0
- molecule: "Cc1ccc(NC(=O)Nc2ccccc2)cc1-c1ccc(C(=O)Nc2ccncc2)cc1"
  %Inh [%]: 0
- molecule: "COc1cccc(C2=C(Nc3cc(Cl)c(O)c(Cl)c3)C(=O)NC2=O)c1"
  %Inh [%]: 0
- molecule: "Cc1nccc(-c2c(-c3ccc(F)cc3)ncn2CCCN2CCOCC2)n1.Cl"
  %Inh [%]: 21
- molecule: "COC(=O)c1cccc(NC(=O)NC2CCN(c3ccnc(Nc4ccc(OC)cc4)n3)C2)c1 (stereo not shown)"
  %Inh [%]: 0

###

- Tested on: EPHB3
- studyConditions: concentration: 1 μM, replicates: in singlicate; n = 1
Listed next: entries and their corresponding %Inh.

- molecule: "Cc1ccc(NC(=O)Nc2ccccc2)cc1-c1ccc(C(=O)Nc2ccncc2)cc1"
  %Inh [%]: 15
- molecule: "O=c1cc(N2CCOCC2)nc2n(Cc3cccc(Cl)c3Cl)c3ccccc3n12"
  %Inh [%]: 20
- molecule: "Nc1cccc(-c2ccc3c(N)n[nH]c3c2)n1"
  %Inh [%]: 1
- molecule: "CS(=O)(=O)Cc1ccc(Nc2nccc(-c3c(-c4cccc(NC(=O)C5CCCCC5)c4)nn4ncccc34)n2)cc1"
  %Inh [%]: 5
- molecule: "Cc1ccc(NC(=O)Nc2ccccc2F)cc1-c1ccc(C(=O)Nc2ccncc2)cc1"
  %Inh [%]: 22
- molecule: "COC(=O)c1cccc(NC(=O)NC2CCN(c3ccnc(Nc4ccc(F)cc4)n3)C2)c1 (centres unmarked)"
  %Inh [%]: 0
- molecule: "Cc1nccc(-c2c(-c3ccc(F)cc3)ncn2CCCN2CCOCC2)n1.Cl"
  %Inh [%]: 3
- molecule: "CCCCc1nn2ncccc2c1-c1ccnc(NC2CC2)n1"
  %Inh [%]: 0
- molecule: "NS(=O)(=O)c1cccc(N/C=C2\\C(=O)Nc3ccc(S(=O)(=O)Cc4c(Cl)cccc4Cl)cc32)c1"
  %Inh [%]: 6
- molecule: "Cc1cccc2c(-c3ccncn3)c(-c3ccc(F)cc3)nn12"
  %Inh [%]: 2
- molecule: "COC(=O)c1cccc(NC(=O)NC2CCN(c3ccnc(Nc4ccc(OC)cc4)n3)C2)c1 (centres unmarked)"
  %Inh [%]: 5
- molecule: "CNc1nc(-c2ccc3c(N)n[nH]c3c2)cc(N2C[C@@H](C(=O)Nc3ccccc3)CC[C@H]2C)n1"
  %Inh [%]: 9
- molecule: "O=C(Nc1n[nH]c2cc(-c3ccsc3)ccc12)C1CC1"
  %Inh [%]: 7
- molecule: "CS(=O)(=O)CCNCc1nc(-c2ccc3ncnc(Nc4ccc5c(cnn5Cc5ccccc5)c4)c3c2)cs1.Cl.Cl"
  %Inh [%]: 13

###

- System: CDKL1
- studyConditions: concentration: 1 μM, replicates: in singlicate; n = 1
# strict inequality: %Inh < 7% yields 1, everything else yields -1

- molecule: "NS(=O)(=O)c1cccc(N/C=C2\\C(=O)Nc3ccc(S(=O)(=O)Cc4c(Cl)cccc4Cl)cc32)c1 [GSK398099]"
  answerLabel: -1
- molecule: "O=C1NC(=O)C(c2ccc(Cl)cc2)=C1Nc1cccc(Cl)c1 [SB-317651]"
  answerLabel: -1
- molecule: "Nc1nccc(-c2c(-c3ccc(F)cc3)ncn2C2CCN(Cc3ccccc3)CC2)n1 [SB-219980]"
  answerLabel: 1
- molecule: "O=C(Nc1n[nH]c2nc(-c3ccco3)c(Br)cc12)C1CCN(Cc2ccccc2)C1.O=C(O)[C@H](O)[C@@H](O)C(=O)O (centres unmarked) [SB-742034]"
  answerLabel: -1
- molecule: "Nc1cccc(-c2ccc3c(N)n[nH]c3c2)n1 [GSK2192730]"
  answerLabel: 1
- molecule: "Cc1ccc(NC(=O)Nc2ccc(Cl)c(C(F)(F)F)c2)cc1-c1ccc(C(=O)Nc2ccncc2)cc1 [GSK1398470]"
  answerLabel: -1
- molecule: "COc1cc2ncnc(Nc3cccc(Br)c3)c2cc1OC.Cl [GI230329]"
  answerLabel: -1

###

- System: CSNK2A2
- studyConditions: concentration: 1 μM, replicates: in singlicate; n = 1
// values below are reported %Inh
quantity: %Inh (%)

- compound: "O=c1cc(N2CCOCC2)nc2n(Cc3ccccc3F)ccn12 [GSK2297428]"
  observed: 0
- compound: "CS(=O)(=O)CCNCc1nc(-c2ccc3ncnc(Nc4ccc(OCc5ccccc5)c(Cl)c4)c3c2)cs1.Cl [GW582764]"
  observed: 0
- compound: "COc1nccc(-c2c(-c3ccc(F)cc3)ncn2CCCN2CCOCC2)n1 [SB-282852]"
  observed: 9
- compound: "Cc1ccc(-c2nc(Nc3ccncc3)c3ccccc3n2)s1 [GSK189015]"
  observed: 30
- compound: "COC(=O)C(NC(=O)NC1CCN(c2ccnc(Nc3ccc(F)cc3)n2)C1)c1ccccc1 (centres unmarked) [GSK1379712]"
  observed: 0

###

- System: ULK2
- studyConditions: concentration: 1 μM, replicates: in singlicate; n = 1

- compoundSmiles: "Fc1ccc(-c2nn3cccc(F)c3c2-c2ccncc2)cc1"
  %Inh (%): 0
- compoundSmiles: "NS(=O)(=O)c1cccc(N/C=C2\\C(=O)Nc3ccc(S(=O)(=O)Cc4c(Cl)cccc4Cl)cc32)c1"
  %Inh (%): 4
- compoundSmiles: "CC(C)c1ccc(O)cc1Nc1ccnc2ccc(C(F)(F)F)cc12"
  %Inh (%): 0
- compoundSmiles: "COc1cccc(NC(=O)Nc2ccc(C)c(-c3ccc(C(=O)Nc4ccncc4)cc3)c2)c1"
  %Inh (%): 0

###

- Tested on: ITK
- studyConditions: concentration: 1 μM, replicates: in singlicate; n = 1
List of %Inh values.

- compound: "CC(=O)c1cccc(NC(=O)NC2CCN(c3ccnc(Nc4ccc(F)cc4)n3)C2)c1 (centres unmarked) [GSK1379710]"
  %Inh [%]: 8
- compound: "CC(C)c1ccc(O)cc1Nc1ccnc2ccc(C(F)(F)F)cc12 [GW482059]"
  %Inh [%]: 0
- compound: "Nc1nccc(-c2c(-c3ccc(F)cc3)ncn2C2CCN(Cc3ccccc3)CC2)n1 [SB-219980]"
  %Inh [%]: 7
- compound: "Cn1cnc2c(N)ncnc21 [SKF-97623]"
  %Inh [%]: 7
- compound: "Nc1cccc(-c2ccc3c(N)n[nH]c3c2)n1 [GSK2192730]"
  %Inh [%]: 0
